# assay-comment: Metabolic stability in mouse liver microsomes assessed as fraction of 0.5 uM parent compound remaining after 10 mins
# Format: ADME
# condition-parameters: read-out: Stability
# thresholds on remaining at 10 min, 0.5 µM define classes: I = under 20%, II = from 20% up to 60%, III = 60% and over

[
  {
    "substance-smiles": "CCC(CC)[C@H](C(N)=O)[C@@H](CC(C)(C)C)C(=O)N[C@H]1N=C(c2ccccc2)c2ccccc2N(C)C1=O",
    "class-label": "I"
  },
  {
    "substance-smiles": "NC(=O)[C@@H](c1cnoc1)[C@@H](CCC(F)(F)F)C(=O)N[C@H]1N=C(c2ccccc2)c2ccccc2NC1=O",
    "class-label": "III"
  },
  {
    "substance-smiles": "NC(=O)[C@@H](c1cocn1)[C@@H](CCC(F)(F)F)C(=O)N[C@H]1N=C(c2ccccc2)c2ccccc2NC1=O",
    "class-label": "III"
  },
  {
    "substance-smiles": "CCC(CC)[C@H](C(N)=O)[C@@H](CCC(F)(F)F)C(=O)N[C@H]1N=C(c2ccccc2)c2ccccc2N(C)C1=O",
    "class-label": "I"
  },
  {
    "substance-smiles": "Cc1nc([C@H](C(N)=O)[C@@H](CCC(F)(F)F)C(=O)N[C@H]2N=C(c3ccccc3)c3ccccc3N(C)C2=O)no1",
    "class-label": "II"
  },
  {
    "substance-smiles": "CN1C(=O)[C@@H](NC(=O)[C@H](CCC(F)(F)F)[C@@H](C(N)=O)c2ccc(F)cc2F)N=C(c2ccccc2)c2ccccc21",
    "class-label": "II"
  },
  {
    "substance-smiles": "CN1C(=O)[C@@H](NC(=O)[C@H](CCC(F)(F)F)[C@@H](C(N)=O)c2ccc(F)cc2)N=C(c2ccccc2)c2ccccc21",
    "class-label": "III"
  },
  {
    "substance-smiles": "Cc1cccc([C@H](C(N)=O)[C@@H](CCC(F)(F)F)C(=O)N[C@H]2N=C(c3ccccc3)c3ccccc3N(C)C2=O)c1",
    "class-label": "I"
  },
  {
    "substance-smiles": "CCC(CC)[C@H](C(N)=O)[C@@H](CC(C)C)C(=O)N[C@H]1N=C(c2ccccc2)c2ccccc2N(C)C1=O",
    "class-label": "I"
  },
  {
    "substance-smiles": "CN1C(=O)[C@@H](NC(=O)[C@H](CCC(F)(F)F)[C@@H](C(N)=O)c2cccc(OC(F)(F)F)c2)N=C(c2ccccc2)c2ccccc21",
    "class-label": "III"
  },
  {
    "substance-smiles": "Cc1nocc1[C@H](C(N)=O)[C@@H](CCC(F)(F)F)C(=O)N[C@H]1N=C(c2ccccc2)c2ccccc2N(C)C1=O",
    "class-label": "II"
  },
  {
    "substance-smiles": "CN1C(=O)[C@@H](NC(=O)[C@H](CCC(F)(F)F)[C@@H](C(N)=O)c2ccc(F)c(F)c2)N=C(c2ccccc2)c2ccccc21",
    "class-label": "II"
  },
  {
    "substance-smiles": "CN1C(=O)[C@@H](NC(=O)[C@H](CCC(F)(F)F)[C@@H](C(N)=O)c2ccccc2)N=C(c2ccccc2)c2ccccc21",
    "class-label": "III"
  },
  {
    "substance-smiles": "CN1C(=O)[C@@H](NC(=O)[C@H](CCC(F)(F)F)[C@@H](C(N)=O)c2cc(F)cc(F)c2)N=C(c2ccccc2)c2ccccc21",
    "class-label": "II"
  },
  {
    "substance-smiles": "CCC[C@H](C(N)=O)[C@@H](CC(F)(F)F)C(=O)N[C@H]1N=C(c2ccccc2)c2ccccc2N(C)C1=O",
    "class-label": "II"
  },
  {
    "substance-smiles": "Cc1cc([C@H](C(N)=O)[C@@H](CCC(F)(F)F)C(=O)N[C@H]2N=C(c3ccccc3)c3ccccc3N(C)C2=O)no1",
    "class-label": "I"
  },
  {
    "substance-smiles": "COc1ccc([C@H](C(N)=O)[C@@H](CCC(F)(F)F)C(=O)N[C@H]2N=C(c3ccccc3)c3ccccc3N(C)C2=O)cc1",
    "class-label": "I"
  },
  {
    "substance-smiles": "CN1C(=O)[C@@H](NC(=O)[C@H](CCC(F)(F)F)[C@@H](C(N)=O)c2cccc(S(C)(=O)=O)c2)N=C(c2ccccc2)c2ccccc21",
    "class-label": "III"
  },
  {
    "substance-smiles": "NC(=O)[C@@H](c1ncon1)[C@@H](CCC(F)(F)F)C(=O)N[C@H]1N=C(c2ccccc2)c2ccccc2NC1=O",
    "class-label": "III"
  }
]

====

# Tested on: TALL-1
# assay-comment: Anticancer activity against human TALL-1 cells assessed as cell number by coulter channelyzer
# Type: functional, cell-based
Field 'label' (enum: Satisfied / Not satisfied). Set to Satisfied when IC50 is strictly under 10 nM; else Not satisfied.

[
  {
    "substance-smiles": "Cc1cccc([C@H](C(N)=O)[C@@H](CCC(F)(F)F)C(=O)N[C@H]2N=C(c3ccccc3)c3ccccc3N(C)C2=O)c1",
    "measured-target": "TALL-1",
    "class-label": "Not satisfied"
  },
  {
    "substance-smiles": "CN1C(=O)[C@@H](NC(=O)[C@H](CCC(F)(F)F)[C@@H](C(N)=O)c2ccccc2)N=C(c2ccccc2)c2ccccc21",
    "measured-target": "TALL-1",
    "class-label": "Satisfied"
  },
  {
    "substance-smiles": "CN1C(=O)[C@@H](NC(=O)[C@H](CCC(F)(F)F)[C@@H](C(N)=O)c2cccc(OC(F)(F)F)c2)N=C(c2ccccc2)c2ccccc21",
    "measured-target": "TALL-1",
    "class-label": "Not satisfied"
  },
  {
    "substance-smiles": "CN1C(=O)[C@@H](NC(=O)[C@H](CCC(F)(F)F)[C@@H](C(N)=O)c2ccc(F)cc2)N=C(c2ccccc2)c2ccccc21",
    "measured-target": "TALL-1",
    "class-label": "Satisfied"
  },
  {
    "substance-smiles": "CCC(CC)[C@H](C(N)=O)[C@@H](CC(C)C)C(=O)N[C@H]1N=C(c2ccccc2)c2ccccc2N(C)C1=O",
    "measured-target": "TALL-1",
    "class-label": "Satisfied"
  },
  {
    "substance-smiles": "CN1C(=O)[C@@H](NC(=O)[C@H](CCC(F)(F)F)[C@@H](C(N)=O)c2ccc(F)c(F)c2)N=C(c2ccccc2)c2ccccc21",
    "measured-target": "TALL-1",
    "class-label": "Satisfied"
  },
  {
    "substance-smiles": "CN1C(=O)[C@@H](NC(=O)[C@H](CCC(F)(F)F)[C@@H](C(N)=O)c2ccc(F)cc2F)N=C(c2ccccc2)c2ccccc21",
    "measured-target": "TALL-1",
    "class-label": "Satisfied"
  },
  {
    "substance-smiles": "CN1C(=O)[C@@H](NC(=O)[C@H](CCC(F)(F)F)[C@@H](C(N)=O)c2cc(F)cc(F)c2)N=C(c2ccccc2)c2ccccc21",
    "measured-target": "TALL-1",
    "class-label": "Satisfied"
  },
  {
    "substance-smiles": "CN1C(=O)[C@@H](NC(=O)[C@H](CCC(F)(F)F)[C@@H](C(N)=O)c2cccc(C(F)(F)F)c2)N=C(c2ccccc2)c2ccccc21",
    "measured-target": "TALL-1",
    "class-label": "Not satisfied"
  },
  {
    "substance-smiles": "COc1ccc([C@H](C(N)=O)[C@@H](CCC(F)(F)F)C(=O)N[C@H]2N=C(c3ccccc3)c3ccccc3N(C)C2=O)cc1",
    "measured-target": "TALL-1",
    "class-label": "Satisfied"
  },
  {
    "substance-smiles": "CCC[C@H](C(N)=O)[C@@H](CC(F)(F)F)C(=O)N[C@H]1N=C(c2ccccc2)c2ccccc2N(C)C1=O",
    "measured-target": "TALL-1",
    "class-label": "Not satisfied"
  }
]

====

# assay-comment: Metabolic stability in human liver microsomes assessed as fraction of 0.5 uM parent compound remaining after 10 mins
# Type: ADME
# condition-parameters: read-out: Stability
Field 'label' (enum: satisfied / not satisfied). Set to satisfied when remaining at 10 min, 0.5 µM is strictly under 80%; else not satisfied.

[
  {
    "substance-smiles": "NC(=O)[C@@H](c1cnoc1)[C@@H](CCC(F)(F)F)C(=O)N[C@H]1N=C(c2ccccc2)c2ccccc2NC1=O",
    "class-label": "not satisfied"
  },
  {
    "substance-smiles": "CCC(CC)[C@H](C(N)=O)[C@@H](CC(C)(C)C)C(=O)N[C@H]1N=C(c2ccccc2)c2ccccc2N(C)C1=O",
    "class-label": "satisfied"
  },
  {
    "substance-smiles": "CCC(CC)[C@H](C(N)=O)[C@@H](CC(C)C)C(=O)N[C@H]1N=C(c2ccccc2)c2ccccc2N(C)C1=O",
    "class-label": "satisfied"
  },
  {
    "substance-smiles": "Cc1cccc([C@H](C(N)=O)[C@@H](CCC(F)(F)F)C(=O)N[C@H]2N=C(c3ccccc3)c3ccccc3N(C)C2=O)c1",
    "class-label": "satisfied"
  },
  {
    "substance-smiles": "CCC[C@H](C(N)=O)[C@@H](CC(F)(F)F)C(=O)N[C@H]1N=C(c2ccccc2)c2ccccc2N(C)C1=O",
    "class-label": "satisfied"
  },
  {
    "substance-smiles": "CN1C(=O)[C@@H](NC(=O)[C@H](CCC(F)(F)F)[C@@H](C(N)=O)c2cc(F)cc(F)c2)N=C(c2ccccc2)c2ccccc21",
    "class-label": "not satisfied"
  },
  {
    "substance-smiles": "CN1C(=O)[C@@H](NC(=O)[C@H](CCC(F)(F)F)[C@@H](C(N)=O)c2cccc(OC(F)(F)F)c2)N=C(c2ccccc2)c2ccccc21",
    "class-label": "not satisfied"
  }
]
